- ASSAYED SYSTEM: human GLP-1 receptor (human, UniProt P43220 24-463)
- PROTOCOL SUMMARY: cell-based or functional assay
Please go through the items and note down their EC50, cAMP.
Numbers only, in nM.

The examples below pair each entry with its known result.
* YXEGTXTSDXSIXLDXKAQXEXIXXLIEGGKSSGAPPPS (Aib2, αMeF6, 4Pal10, αMeL13, Orn16, Aib20, αMeF22, D-Glu24, αMeY25, K17 and K31: K(AEEA2-(γ-Glu)-CO-(CH2)12-CO2H), C-terminal NH2) [Example 47] | 1.94
* YXEGTXTSDXSIXLDXKAQXEFIXXLIKGGPSSGAPPPS (Aib2, αMeF(2F)6, 4Pal10, αMeL13, Orn16, Aib20, D-Glu24, αMeY25, K17 and K28: K(AEEA2-(γ-Glu)-(4-(4-tert-butylphenyl)butanoyl)), C-terminal NH2) [Example 133] | 0.258

Consider now this further binder.
State the recorded EC50, cAMP for this entry: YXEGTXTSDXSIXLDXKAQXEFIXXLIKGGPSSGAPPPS (Aib2, αMeF(2F)6, 4Pal10, αMeL13, Orn16, Aib20, D-Glu24, αMeY25, K17 and K28: K(AEEA2-(γ-Glu)-CO-(CH2)10-CH3), C-terminal NH2) [Example 139] 0.141
